Target Desc: HLA-B*44:02
Test Method Notes: IEDB peptide-MHC binding, purified MHC/direct/fluorescence; filed as Kd, often an IC50 or EC50 that approximates it; bounds were set here for any values at or beyond the usual limits of such assays
Conditions Used: source organism: Influenza A virus (A/Turkey/MO/24093/99(H1N2))
pKd: −log10 of the molar value.
Quantity Kind: pKd

Inquiry: // fetch pKd given entry `MQIRGFVYF`
Reply text: ≤ 4.70

* * *

Target Desc: HLA-C*05:01
Test Method Notes: IEDB peptide-MHC binding, purified MHC/direct/fluorescence; filed as Kd, often an IC50 or EC50 that approximates it; bounds were set here for any values at or beyond the usual limits of such assays
Conditions Used: source organism: Entamoeba histolytica HM-1:IMSS
Quantity Kind: pKd
# reply with the number alone; pKd is -log10 of concentration in mol/L

Inquiry: // fetch pKd given entry `FAMRLLQAV`
Reply text: 5.50

* * *

Target Desc: HLA-B*51:01
Test Method Notes: IEDB peptide-MHC binding, purified MHC/competitive/fluorescence; filed as Kd, often an IC50 or EC50 that approximates it; bounds were set here for any values at or beyond the usual limits of such assays
Conditions Used: source organism: Neembucu hantavirus
Quantity Kind: Kd

Inquiry: // fetch Kd given entry `ETESATLFT`
Reply text: ≥ 20 µM

* * *

Target Desc: HLA-A*23:01
Test Method Notes: IEDB peptide-MHC binding, purified MHC/competitive/radioactivity; filed as Kd, often an IC50 or EC50 that approximates it; bounds were set here for any values at or beyond the usual limits of such assays
Conditions Used: source organism: Mammarenavirus machupoense
pKd: −log10 of the molar value.
Quantity Kind: pKd

Inquiry: // fetch pKd given entry `LSSGEPHCA`
Reply text: ≤ 4.32

* * *

Target Desc: HLA-B*15:01
Test Method Notes: IEDB peptide-MHC binding, purified MHC/direct/fluorescence; filed as Kd, often an IC50 or EC50 that approximates it; bounds were set here for any values at or beyond the usual limits of such assays
Conditions Used: source organism: Vibrio parahaemolyticus AQ3810
Quantity Kind: Kd

Inquiry: // fetch Kd given entry `HQFTSNPEV`
Reply text: ≥ 20 µM

* * *

Target Desc: HLA-B*44:03
Test Method Notes: IEDB peptide-MHC binding, purified MHC/competitive/radioactivity; filed as Kd, often an IC50 or EC50 that approximates it; bounds were set here for any values at or beyond the usual limits of such assays
Conditions Used: source organism: Dengue virus 3 Martinique/1243/1999
Quantity Kind: pKd
# reply with the number alone; pKd is -log10 of concentration in mol/L

Inquiry: // fetch pKd given entry `GESNIVIGI`
Reply text: 8.23

Inquiry: // fetch pKd given entry `EEFLDYMPSM`
Reply text: 7.15

Inquiry: // fetch pKd given entry `VEPWLKNNQF`
Reply text: 6.79

* * *

Target Desc: HLA-A*03:01
Test Method Notes: IEDB peptide-MHC binding, purified MHC/direct/fluorescence; filed as Kd, often an IC50 or EC50 that approximates it; bounds were set here for any values at or beyond the usual limits of such assays
Conditions Used: source organism: Alkhumra hemorrhagic fever virus
Quantity Kind: Kd

Inquiry: // fetch Kd given entry `WPWNAREDV`
Reply text: ≥ 20 µM

* * *

Target Desc: HLA-A*24:03
Test Method Notes: IEDB peptide-MHC binding, purified MHC/competitive/fluorescence; filed as Kd, often an IC50 or EC50 that approximates it; bounds were set here for any values at or beyond the usual limits of such assays
Conditions Used: source organism: Bacillus anthracis str. A0488
pKd: −log10 of the molar value.
Quantity Kind: pKd

Inquiry: // fetch pKd given entry `KLWASFFQG`
Reply text: ≤ 4.70
